// reported Kd per item
# Experimental system: T1, recombinant human sc-uPA (human, UniProt P00749 21-431)
# T1 construct: 411 amino acid single-chain zymogen expressed in HEK293; the 20-residue signal peptide is not present in the mature protein; also called human single-chain uPA; pro-uPA
# Experiment notes: SPR, mAb immobilised
Express it in nM; write the number only.

Example entries and their recorded answers appear below.
Binder	Kd [nM]
rec0266-0000-0010-VL_N90R (antibody, mouse IgG1, name in Kabat numbering, V domains shown) VH: DVKLVESGGGLVKPGGSLKLSCVASGFTFSSYTMSWVRQTPEKRLEWVATISGGGSHIYYADSVKGRFTISRDNAKNTLYLQMSSLKSEDTAIYYCTRDGRDGSWFAYWGQGTLVTVSA VL: DIVMTQSPATLSVTPGDRVSLSCRTSQSIGDYLHWYQQKSHESPRLLIKYVSQSISGIPSRFSGSGSGSDFTLSINSVESEDVGVYYCQRSHSFPLTFGSGTKLELKR	1.9
rec0266-0000-0010-VL_S91E (antibody, mouse IgG1, name in Kabat numbering, V domains shown) VH: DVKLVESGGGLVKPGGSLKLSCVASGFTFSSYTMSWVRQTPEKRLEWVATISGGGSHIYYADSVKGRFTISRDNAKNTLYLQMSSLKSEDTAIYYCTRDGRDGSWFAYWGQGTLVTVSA VL: DIVMTQSPATLSVTPGDRVSLSCRTSQSIGDYLHWYQQKSHESPRLLIKYVSQSISGIPSRFSGSGSGSDFTLSINSVESEDVGVYYCQNEHSFPLTFGSGTKLELKR	10

# next binder below
Value lookup for Kd; key = rec0266-0000-0010-VL_S91P (antibody, mouse IgG1, name in Kabat numbering, V domains shown) VH: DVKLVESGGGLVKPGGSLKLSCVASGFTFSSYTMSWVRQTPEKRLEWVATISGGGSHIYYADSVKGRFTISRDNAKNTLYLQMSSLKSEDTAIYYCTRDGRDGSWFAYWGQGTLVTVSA VL: DIVMTQSPATLSVTPGDRVSLSCRTSQSIGDYLHWYQQKSHESPRLLIKYVSQSISGIPSRFSGSGSGSDFTLSINSVESEDVGVYYCQNPHSFPLTFGSGTKLELKR
2
